System: L1210 leukemia ip in BDF1 mice, survival T/C
PROCEDURE TEXT: NCI In Vivo Anticancer Drug Screen. Data for tumor model L1210 Leukemia (intraperitoneal) in B6D2F1 (BDF1) mice
MEASUREMENT SETUP: endpoint: mean survival time; dose: 300.0 mg/kg/injection; schedule: Q01DX001 (ip); vehicle: carboxymethylcellulose (CMC); higher = longer survival
Toxic doses and inconclusive results are not listed.
METRIC: T/C

1) CC1CCc2cc3c4ccccc4n(C)c3cc2C1 (centres undefined) :: 109 % of control
2) c1ccc(CNCC2c3[nH]c4ccccc4c3CN2C2CCCCC2)cc1 (centres undefined) :: 91 % of control
3) COc1ccc(C)cc1OC(CCC(C)C)C(C)=O (centres undefined) :: 90 % of control
4) CCCCCCCCCN(C)C(C)=O :: 96 % of control

Where these numbers come from: PubChem BioAssay AID248
